Biological target: T1, biotinylated CD3 epsilon:delta heterodimer protein (Amsbio AMS.CDD-H52WO) (Homo sapiens (Human), UniProt P07766 23-126; P04234 22-105)
T1 construct: also called CD3 heterodimer
Assay: BLI (Octet), CD3 on SA sensor, Fab analyte;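 note: biolayer interferometry with biotinylated CD3 epsilon:delta captured on streptavidin sensors, Fab analyte at several concentrations up to 300 nM, 100 s association then 300 s dissociation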
Reported Kd values are given for each entry in this list.
Measurement Type: Kd (nM)

Binder	Unit Spec	Quantitative Result
huSP34.6.5 Fab-HF (Fab, V domains shown, also called HC6+LC5) VH: EVQLVESGGGLVQPGGSLRLSCAASGFTFSTYAMNWVRQAPGKGLEWVGRIRSKYNNYATYYADSVKGRFTISRDNSKNTLYLQMNSLRAEDTAMYYCVRHGNFGNSYVSWFAVWGQGTLVTVSS VL: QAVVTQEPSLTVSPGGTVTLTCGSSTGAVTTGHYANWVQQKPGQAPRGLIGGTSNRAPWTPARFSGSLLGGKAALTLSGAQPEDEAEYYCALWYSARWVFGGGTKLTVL	nM	353
huSP34.9.1 Fab-HF (Fab, V domains shown, also called HC9+LC1) VH: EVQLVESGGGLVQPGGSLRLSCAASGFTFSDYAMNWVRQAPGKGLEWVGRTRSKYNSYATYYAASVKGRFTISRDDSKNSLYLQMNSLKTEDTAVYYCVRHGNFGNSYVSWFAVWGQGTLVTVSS VL: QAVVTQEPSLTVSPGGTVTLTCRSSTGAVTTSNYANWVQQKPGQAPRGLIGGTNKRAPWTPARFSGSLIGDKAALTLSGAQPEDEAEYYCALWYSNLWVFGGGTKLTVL	nM	417
